# Tested on: SF-295
# EXPERIMENT_SUMMARY: NCI tumour cell line growth inhibition, 48 h
Activity calls are given as the source filed them. No stated cut-off is given here; in the data, active = GI50 up to about 1.1 µM and inactive = higher.
REPORTED_PROPERTY: GI50

{"COMPOUND": "CS(=O)(=O)c1nc(-c2cc3c(c(S(C)(=O)=O)n2)CCC3)cc2c1CCCC2", "GI50": "29.7 µM (inactive)"}
{"COMPOUND": "C(=NCCN1CCOCC1)=NC1CCCCC1", "GI50": "> 100 µM (inactive)"}
{"COMPOUND": "O=C(O)CCC(=O)c1ccc2sc3ccccc3c2c1", "GI50": "> 100 µM (inactive)"}
{"COMPOUND": "COc1cc2c(cc1C)NC(=O)/C2=C/c1c(Cl)n(C)c2ccccc12", "GI50": "7.66 µM (inactive)"}
{"COMPOUND": "CC(=O)Oc1c(C)c2c(O)c3c1C1=C(OCOC1=C(C)C3=O)/C(C)=C/C(C)(O)C(O)C(C)C(O)C1C(=O)OC(C(C)C1O)C(C)(O)/C=C\\C=C(C)C(=O)N2 (stereo unspecified)", "GI50": "38.3 µM (inactive)"}

The measured GI50 associated with COC(=O)N/N=c1\cc(C(=O)Nc2ccc(C)c(C)c2)oc2cc(O)ccc12 reads > 100 µM (inactive)

FYI, the data here is from ChEMBL document CHEMBL1201862.
